# reported growth inhibition; entries follow
protocol.notes: NCI Yeast Anticancer Drug Screen. Data for the mec2-1 strain (AID 157)
measurement.setup: S. cerevisiae mec2-1 strain, at 1.2 µM, hits give high values
About 79,000 compounds went through this panel and 15% of them were active in at least one assay; those are over-represented in the sample as a whole.
Numeric only. Scale: %

Worked set:
{"molecule": "CCCC#CCOC(=O)c1cc([N+](=O)[O-])cc([N+](=O)[O-])c1", "units.symbol": "%", "growth inhibition": -2}
{"molecule": "CCOC(=O)C1=C(C)NC(C)=C(C(=O)OCC)C1c1ccc(Cl)cc1", "units.symbol": "%", "growth inhibition": -9}
{"molecule": "CCN(CC)c1ccc(N=Nc2cc(S(=O)(=O)O)ccc2O)c(O)c1", "units.symbol": "%", "growth inhibition": -28}
{"molecule": "O=C(c1c(F)c(F)c(F)c(F)c1F)c1c(F)c(F)c(F)c(F)c1F", "units.symbol": "%", "growth inhibition": 36}
{"molecule": "Cc1ccc(Nc2n[nH]c(=S)s2)cc1C", "units.symbol": "%", "growth inhibition": 1}

Give its growth inhibition value. Item: CCC(C)/C(C)=N/NC(N)=O (configuration not stated)
-1

Then this molecule: O=Cn1c2ccccc2c2ccccc21
-51

Queued: O=C(CSS(=O)(=O)O)c1ccccc1
-4

The values you see were collected from PubChem BioAssay (NCI).
